# ASSAY PROCEDURE: Aqueous stability of compound assessed as compound remaining measured at 10 mins by HPLC assay
# Type: physicochemical
# APPLIED CONDITIONS: aqueous solution, read-out: Stability
ENDPOINT LABEL: remaining at 10 min (%)

INSERT INTO measurements (smiles_data, reported_result) VALUES
  ('CN1CCN(C(=O)[C@@H]2[C@H](C(=O)O)[C@H]3CC[C@@H]2O3)CC1', 93);

----------
# ASSAY PROCEDURE: Aqueous stability of compound assessed as compound remaining measured at 240 mins by HPLC assay
# Format: physicochemical
# APPLIED CONDITIONS: aqueous solution, read-out: Stability
ENDPOINT LABEL: remaining at 4 h (%)

INSERT INTO results (smiles_data, endpoint_label, measurement_unit, reported_result) VALUES
  ('O=C(O)[C@@H]1[C@H](C(=O)N2CCc3ccccc32)[C@H]2CC[C@@H]1O2', 'remaining at 4 h', '%', 52.8),
  ('O=C(NC1CCCCC1)[C@@H]1[C@H](C(=O)O)[C@H]2CC[C@@H]1O2', 'remaining at 4 h', '%', 73.2),
  ('O=CN1CCN(C(=O)[C@@H]2[C@H](C(=O)O)[C@H]3CC[C@@H]2O3)CC1', 'remaining at 4 h', '%', 80.3),
  ('O=C(NC1CCCC1)[C@@H]1[C@H](C(=O)O)[C@H]2CC[C@@H]1O2', 'remaining at 4 h', '%', 10.2),
  ('O=C(O)[C@@H]1[C@H](C(=O)NC2CCCC2)[C@H]2CC[C@@H]1O2', 'remaining at 4 h', '%', 72.2),
  ('O=C(O)[C@@H]1[C@H](C(=O)n2ccc3ccccc32)[C@H]2CC[C@@H]1O2', 'remaining at 4 h', '%', 99.8),
  ('O=C(Nc1ccccc1)[C@@H]1[C@H](C(=O)O)[C@H]2CC[C@@H]1O2', 'remaining at 4 h', '%', 74.5),
  ('O=C(O)[C@@H]1[C@H](C(=O)N2CCC2)[C@H]2CC[C@@H]1O2', 'remaining at 4 h', '%', 33.8),
  ('O=C(O)[C@@H]1[C@H](C(=O)N2CCN(c3ccccc3)CC2)[C@H]2CC[C@@H]1O2', 'remaining at 4 h', '%', 93);

----------
# ASSAY PROCEDURE: Aqueous stability of compound assessed as compound remaining measured at 60 mins by HPLC assay
# Assay type: physicochemical
# APPLIED CONDITIONS: aqueous solution, read-out: Stability
ENDPOINT LABEL: remaining at 1 h (%)

INSERT INTO assay_data (smiles_data, endpoint_label, reported_result) VALUES
  ('CN1CCN(C(=O)[C@@H]2[C@H](C(=O)O)[C@H]3CC[C@@H]2O3)CC1', 'remaining at 1 h', 68);

----------
# ASSAY PROCEDURE: AUC(0 to infinity) in Sprague-Dawley rat at 5 mg/kg, iv measured upto 24 hrs by LC-MS/MS method
# Type: ADME, organism-based
# APPLIED CONDITIONS: in vivo
ENDPOINT LABEL: AUC(0-inf) (ng·h/mL)

INSERT INTO results (smiles_data, reported_result) VALUES
  ('O=C(O)[C@@H]1[C@H](C(=O)n2ccc3ccccc32)[C@H]2CC[C@@H]1O2', 13300);
